// reported inhibition at 0.2 µM per item
system: M. tuberculosis H37Rv-GFP; assay: microbe, parasite or virus in culture; type: cell-based, Mycobacterium tuberculosis; settings: Mycobacterium tuberculosis, H37RV, Macrophage; confirmation, 0.2 uM, intracellular; read-out: QIM Confirm % Inhibition 0.2 uM
Reply with the number, then its unit.

[[record]]
compound = "C/C(=N\\NOCc1cc([N+](=O)[O-])cc([N+](=O)[O-])c1)c1ccccc1 [IPK 000 035 56]"
measured_endpoint = "inhibition at 0.2 µM"
recorded_measurement = "9.1%"


Now let's try a different one.
# input compound: Cc1ccc2ccc3ccc(C)nc3c2n1 [IPK 000 002 03] ; wanted: its inhibition at 0.2 µM
-2%

====

test system: Raw264.7 cells; settings: mouse, 5 days, 20 μM
MEASURED ENDPOINT: Primary QIM CellNb
Respond with the number and no other words.

Recorded Primary QIM CellNb, per entry:
[[record]]
compound = "CCN(CC)c1ccc(/C=N/NC(=O)c2cccs2)c(O)c1"
recorded_measurement = "−1.7"

[[record]]
compound = "CCOC(=O)CSc1nc(N)c(C(=O)Nc2ccc(N(C)C)cc2)s1"
recorded_measurement = 4.7


Now let's try a different one.
# input compound: CCOc1ccccc1/C=N/NC(=O)c1ccncc1 ; wanted: its Primary QIM CellNb
105.2

====

// reported Primary QIM CellNb per item
system: Raw264.7 cells; conditions: mouse, 5 days, 20 μM
Respond with the number and no other words.

[[record]]
compound = "CCc1ccc(/C=N/NC(=O)c2ccncc2)cc1 [IPK 000 043 31]"
recorded_measurement = 101.5


# input compound: CN(C)c1ccc(/C=N/NC(=O)c2ccncc2)cc1 [IPK 000 042 96] ; wanted: its Primary QIM CellNb
101.1

Repeat with O=C(N/N=C/c1ccc([N+](=O)[O-])cc1)c1ccncc1 [IPK 000 041 48]
97.5

Repeat with O=C(N/N=C/c1cccc(Br)c1)c1ccncc1 [IPK 000 043 09]
100.5

Repeat with COc1cccc(/C=N/NC(=O)c2ccncc2)c1O [IPK 000 043 08]
102.7

====

// reported Primary QIM CellNb per item
system: Raw264.7 cells; experiment: Cell number (CellNb) from image analysis of the phenotypic cell-based assay; conditions: primary screen, 20 μM
Respond with the number and no other words.

Recorded Primary QIM CellNb, per entry:
[[record]]
compound = "CCCCOc1ccc(/C=N/NC(=O)c2ccncc2)cc1"
recorded_measurement = 200.3

[[record]]
compound = "CC(C)(C)c1cc(C(=O)N/N=C2\\C(=O)N(Cc3ccccc3)c3ccccc32)[nH]n1"
recorded_measurement = 480.8

[[record]]
compound = "O=[N+]([O-])c1ccc(O)c(/C=N/c2ccccc2O)c1"
recorded_measurement = 135.0

[[record]]
compound = "CC(/C=N/NC(=O)c1cccc(F)c1)c1ccccc1 (stereo not shown)"
recorded_measurement = 115.8

[[record]]
compound = "Cc1ccc2ccc3ccc(C)nc3c2n1"
recorded_measurement = 77.0

[[record]]
compound = "O=[N+]([O-])c1ccc(/C=N/c2ccccc2O)cc1"
recorded_measurement = 95.5

[[record]]
compound = "CC(/C=N/NC(=O)c1ccccn1)=C\\c1ccco1"
recorded_measurement = 462.3

[[record]]
compound = "COc1cc(/C=N/NC(=O)c2ccncc2)ccc1O"
recorded_measurement = 307.8

[[record]]
compound = "CCOc1ccc(/C=N/NC(=O)c2ccncc2)cc1"
recorded_measurement = 336.5

[[record]]
compound = "O=C(N/N=C/c1ccc(Br)cc1)c1ccncc1"
recorded_measurement = 351.3


Now let's try a different one.
Give Primary QIM CellNb (Raw264.7 cells) of the following compound: Brc1ccc(/C=N/Nc2nc(N3CCOCC3)nc(N3CCOCC3)n2)o1
145.5

====

tested on: M. tuberculosis H37Rv-GFP; test: microbe, parasite or virus in culture; format: cell-based, Mycobacterium tuberculosis; conditions: Mycobacterium tuberculosis, H37RV, Macrophage; confirmation, 0.2 uM, intracellular; read-out: QIM Confirm % Inhibition 0.2 uM
Record rule met whenever inhibition at 0.2 µM is at 20% or higher; record rule not met when lower.

Here's what some known entries look like.
[[record]]
compound = "O=C(N/N=C\\c1ccc(Cl)s1)c1ccncc1"
measurement_target = "M. tuberculosis H37Rv-GFP"
label_value = "rule met"

[[record]]
compound = "C/C(=N/NC(=O)c1ccncc1)c1cccs1"
measurement_target = "M. tuberculosis H37Rv-GFP"
label_value = "rule not met"

[[record]]
compound = "O=C1Nc2ccccc2/C1=N/NC(=O)c1ccncc1"
measurement_target = "M. tuberculosis H37Rv-GFP"
label_value = "rule not met"

[[record]]
compound = "CC(C)c1ccc(CNC(=O)c2cc([N+](=O)[O-])cc([N+](=O)[O-])c2)cc1"
measurement_target = "M. tuberculosis H37Rv-GFP"
label_value = "rule met"

[[record]]
compound = "CCCCS(=O)(=O)/C=C\\C=C\\S(=O)(=O)CCCC"
measurement_target = "M. tuberculosis H37Rv-GFP"
label_value = "rule not met"

[[record]]
compound = "CCCCc1ccc(/C=N/NC(=O)c2ccncc2)cc1"
measurement_target = "M. tuberculosis H37Rv-GFP"
label_value = "rule met"

[[record]]
compound = "O=C(Oc1cccc2ncccc12)c1ccccc1F"
measurement_target = "M. tuberculosis H37Rv-GFP"
label_value = "rule met"

[[record]]
compound = "O=C(CSc1cccs1)Nc1nccs1"
measurement_target = "M. tuberculosis H37Rv-GFP"
label_value = "rule not met"


inhibition at 0.2 µM >= 20% for O=C(N/N=C/c1cccc(Br)c1)C1C2CC/C=C\CCC21 (centres unmarked) ?
rule not met

Repeat with O=[N+]([O-])c1cc(C(F)(F)F)cc([N+](=O)[O-])c1Sc1nc(-c2ccccc2)c[nH]1
rule not met

Repeat with O=C(NN1C(=O)c2ccc(Br)cc2C1=O)c1ccncc1
rule not met

====

system: Raw264.7 cells; conditions: mouse, 5 days, 20 μM
Primary QIM CellNb less than 50 is satisfied; Primary QIM CellNb greater than or equal to 50 is not satisfied.

Here's what some known entries look like.
[[record]]
compound = "O=C(N/N=C/c1ccc([N+](=O)[O-])s1)C1CCN(Cc2ccc(Br)cc2)CC1 [IPK 000 091 49]"
label_value = "satisfied"

[[record]]
compound = "O=C(N/N=C/c1ccc(O)c([N+](=O)[O-])c1)c1ccncc1 [IPK 000 043 11]"
label_value = "not satisfied"

[[record]]
compound = "Cc1ccc(NC(=O)c2ccc([N+](=O)[O-])cc2Cl)cc1Cl [IPK 000 047 16]"
label_value = "not satisfied"

[[record]]
compound = "O=C(N/N=C1\\C(=O)N(Cc2cccc3ccccc23)c2ccccc21)c1cc(-c2ccccc2)n[nH]1 [IPK 000 103 78]"
label_value = "satisfied"

[[record]]
compound = "Cc1ccccc1/C=N/NC(=O)c1ccncc1 [IPK 000 043 29]"
label_value = "not satisfied"

[[record]]
compound = "COc1ccc(/C=N/NC(=O)c2ccncc2)c(OC)c1 [IPK 000 043 00]"
label_value = "not satisfied"


Please state whether Primary QIM CellNb is below 50 for O=C(N/N=C/c1cc2ccccc2[nH]1)c1ccncc1 [IPK 000 043 12]
not satisfied

Repeat with O=C(N/N=C/c1ccc(Br)cc1)c1ccncc1 [IPK 000 041 51]
not satisfied

====

tested on: Raw264.7 cells; assay: Cell number (CellNb) from image analysis of the phenotypic cell-based assay; conditions: primary screen, 20 μM
MEASURED ENDPOINT: Primary QIM CellNb
Respond with the number and no other words.

Recorded Primary QIM CellNb, per entry:
[[record]]
compound = "C=CCn1c(Cc2ccccc2)nc2c(cnn2-c2ccccc2)c1=O [IPK 000 073 11]"
recorded_measurement = 147.8

[[record]]
compound = "COc1ccc(/C(C)=N/NC(N)=S)c(OC)c1 [IPK 000 080 24]"
recorded_measurement = 188.8


# input compound: Cc1ccccc1NC(=O)c1c(NC(=O)c2ccccc2Cl)sc2c1CCC2 [IPK 000 073 71] ; wanted: its Primary QIM CellNb
218.3

Repeat with COc1cc(CN(C)NC(=O)c2ccccn2)ccc1OC(=O)c1cccs1 [IPK 000 058 20]
344.8

Repeat with CC/C(Cc1ccccc1)=N\NC(=O)c1ccncc1 [IPK 000 078 86]
462.0

Repeat with CC1=NN(C(=O)c2ccncc2)C(O)(C(F)(F)F)C1 (centres unmarked) [IPK 000 009 78]
454.5

Repeat with O=C([O-])Cc1ccccc1Nc1c(Cl)cccc1Cl.[Na+] [IPK 000 117 05]
656.5

Repeat with CCOC(=O)/C=C/C(=O)Nc1sc(Cc2ccccc2)c(C)c1C(N)=O [IPK 000 110 16]
179.5

====

tested on: M. tuberculosis H37Rv-GFP; test: microbe, parasite or virus in culture; assay type: cell-based, Mycobacterium tuberculosis; settings: Mycobacterium tuberculosis, H37RV, Macrophage; confirmation, 0.2 uM, intracellular; read-out: QIM Confirm % Inhibition 0.2 uM
// reported inhibition at 0.2 µM per item
Respond numerically; units are % and should not be typed.

[[record]]
compound = "O=C(N/N=C/c1cc(Br)c(Br)o1)c1ccncc1 [IPK 000 009 41]"
measured_endpoint = "inhibition at 0.2 µM"
recorded_measurement = 19.6

[[record]]
compound = "c1ccc(COc2ccc(NCCc3ccncc3)cc2)cc1 [IPK 000 016 00]"
measured_endpoint = "inhibition at 0.2 µM"
recorded_measurement = 3.2

[[record]]
compound = "O=C(/C=C/c1ccc(Cl)cc1Cl)c1ccc(Cl)cc1 [IPK 000 015 36]"
measured_endpoint = "inhibition at 0.2 µM"
recorded_measurement = 15.8

[[record]]
compound = "O=C(Nc1ccc(Oc2ccccc2)cc1)C1CCCO1 (stereo not drawn) [IPK 000 033 16]"
measured_endpoint = "inhibition at 0.2 µM"
recorded_measurement = 5

[[record]]
compound = "O=C(NN=C1CCCC1)c1ccncc1 [IPK 000 013 70]"
measured_endpoint = "inhibition at 0.2 µM"
recorded_measurement = 50.5


# input compound: O=C(N/N=C/c1cccc2ccccc12)c1ccncc1 [IPK 000 041 46] ; wanted: its inhibition at 0.2 µM
41.8

Repeat with O=C(N/N=C/c1ccccc1O)c1ccncc1 [IPK 000 041 45]
56.7

Repeat with CC(C)(C)C(=O)Nc1ccccc1C(=O)N1CCOCC1 [IPK 000 021 87]
15.4

Repeat with O=C(N/N=C/C=C/c1ccccc1)c1ccncc1 [IPK 000 013 68]
50.9
